system: NOP receptor; test: NOP bias factor, G protein vs β-arrestin 2 (Black–Leff operational model); settings: ΔΔlog(τ/KA) G protein minus β-arrestin 2; N/OFQ(1–13)-NH2 as standard unbiased ligand; positive = toward G protein; mean of at least five experiments
value.kind: bias factor (CL95%), NOP

| compound | val |
| --- | --- |
| C[C@H](NC(=O)CNC(=O)[C@@H](NC(=O)[C@H](Cc1ccccc1)NC(=O)CNC(=O)CNC(=O)[C@@H](N)CC1CCCCC1)[C@@H](C)O)C(=O)N[C@@H](CCCNC(=N)N)C(=O)N[C@@H](CCCCN)C(=O)N[C@@H](CO)C(=O)N[C@@H](C)C(=O)N[C@@H](CCCNC(=N)N)C(=O)N[C@@H](CCCCN)C(N)=O [Compound 22, [Cha^1]N/OFQ(1–13)-NH2] | 0.20 (−0.36–0.76) |
| C[C@H](NC(=O)CNC(=O)[C@@H](NC(=O)[C@H](Cc1ccccc1)NC(=O)CNC(=O)CNC(=O)[C@@H](N)Cc1ccccc1)[C@@H](C)O)C(=O)N[C@@H](CCCNC(=N)N)C(=O)N[C@@H](CCCCN)C(=O)N[C@@H](CO)C(=O)N[C@H](C)C(=O)N[C@@H](CCCNC(=N)N)C(=O)N[C@@H](CCCCN)C(N)=O [Compound 19, [DAla^11]N/OFQ(1–13)-NH2] | 0.14 (−0.31–0.60) |
| C[C@H](NC(=O)CNC(=O)[C@@H](NC(=O)[C@H](Cc1ccccc1)NC(=O)CNC(=O)CNC(=O)[C@@H](N)Cc1ccccc1)[C@@H](C)O)C(=O)N[C@@H](CCCNC(=N)N)C(=O)N[C@@H](CCCCN)C(=O)N[C@@H](CO)C(=O)N[C@@H](C)C(=O)N[C@H](CCCNC(=N)N)C(=O)N[C@@H](CCCCN)C(N)=O [Compound 20, [DArg^12]N/OFQ(1–13)-NH2] | 0.26 (−0.19–0.71) |

###

Known bias factor (CL95%), NOP of a selection of compounds
system: NOP receptor; assay: NOP bias factor, G protein vs β-arrestin 2 (Black–Leff operational model); settings: ΔΔlog(τ/KA) G protein minus β-arrestin 2; N/OFQ(1–13)-NH2 as standard unbiased ligand; positive = toward G protein; mean of at least five experiments
Non-standard residues stand in square brackets, D forms with d. Residues, ends and D or L forms follow the SMILES beside them.

| compound | bias factor (CL95%), NOP |
| --- | --- |
| C[C@H](NC(=O)CNC(=O)[C@@H](NC(=O)[C@H](Cc1ccccc1)NC(=O)CNC(=O)CNC(=O)[C@@H](N)Cc1ccccc1)[C@@H](C)O)C(=O)N[C@@H](CCCNC(=N)N)C(=O)N[C@@H](CCCCN)C(=O)N[C@@H](CO)C(=O)N[C@@H](C)C(=O)N[C@@H](CCCNC(=N)N)C(=O)N[C@H](CCCCN)C(N)=O [Compound 21, [DLys^13]N/OFQ(1–13)-NH2] | 0.03 (−0.42–0.48) |
| C[C@H](NC(=O)CNC(=O)[C@@H](NC(=O)[C@H](Cc1ccccc1)NC(=O)CNC(=O)CNC(=O)[C@@H](N)Cc1ccccc1)[C@@H](C)O)C(=O)N[C@H](CCCNC(=N)N)C(=O)N[C@@H](CCCCN)C(=O)N[C@@H](CO)C(=O)N[C@@H](C)C(=O)N[C@@H](CCCNC(=N)N)C(=O)N[C@@H](CCCCN)C(N)=O [Compound 16, [DArg^8]N/OFQ(1–13)-NH2] | 0.26 (−0.25–0.77) |
| C[C@H](NC(=O)CNC(=O)[C@@H](NC(=O)[C@H](Cc1ccccc1)NC(=O)CNC(=O)[C@@H](C)NC(=O)[C@@H](N)Cc1ccccc1)[C@@H](C)O)C(=O)N[C@@H](CCCNC(=N)N)C(=O)N[C@@H](CCCCN)C(=O)N[C@@H](CO)C(=O)N[C@@H](C)C(=O)N[C@@H](CCCNC(=N)N)C(=O)N[C@@H](CCCCN)C(N)=O [Compound 26, [D-Ala^2]N/OFQ(1–13)-NH2] (H-F[dA]GFTGARKSARK-NH2) | 0.20 (−0.26–0.66) |
| C[C@H](NC(=O)[C@H](CO)NC(=O)[C@H](CCCCN)NC(=O)[C@H](CCCNC(=N)N)NC(=O)[C@@H](C)NC(=O)CNC(=O)[C@@H](NC(=O)[C@H](Cc1ccccc1)NC(=O)CNC(=O)CNC(=O)[C@@H](N)Cc1ccccc1)[C@@H](C)O)C(=O)N[C@@H](CCCNC(=N)N)C(=O)N[C@@H](CCCCN)C(N)=O [Compound 15, [DAla^7]N/OFQ(1–13)-NH2] | 0.21 (−0.28–0.70) |

Source: paper PMC8011926
